Data credit: patent US20240124501A1

System: T98g (human glioblastoma cells)
Experiment: Anti-proliferative activity, MTT assay, T98g cells (Example 5)
Assay type: cell-based
Conditions: read-out: IC50 (T98g), condition (B)
assay endpoint: pIC50
Numbers only, as −log10 of the molar value.

Q. Identify pIC50 associated with the compound "CC(C)(C)c1cc(O)c(O)c(C(C)(C)C)c1"
A. 4.82
